assay-remarks: Human HepG2 cell viability assay in 384 well format
Assay type: toxicity, cell-based
Set-up: dose 125 nL, time 70.5 hour; concentration not given beside the values
condition: HepG2 cells, read-out: Inhibition
readout: cytotoxicity at 70.5 h (%)

1) CN(C)c1cc(C2CCCNC2)ccn1 (stereo unspecified) = 4.83
2) CC(C(=O)N(C)Cc1ccc(Br)o1)n1cncn1 (stereo unspecified) = -1.04
3) CC(C)Cc1cc(CNc2nc(-c3cccnc3)nc3c2CNC3)no1 = -15.7
4) CCn1cncc1CN1CCN(CC2(c3ccc(C)cc3)CC2)CC1 = 12
5) CCc1ccc(C(COC)NC(=O)c2ccc(O)nc2)o1 (stereo unspecified) = -6.34
6) COc1ccc(N2CCOCC3(CCCN(c4cnccn4)C3)C2)cc1 (stereo unspecified) = -1.59

###

assay-remarks: Human HepG2 cell viability assay in 384 well format
Assay type: toxicity, cell-based
Design: dose 125 nL, time 70.5 hour; concentration not given beside the values
condition: HepG2 cells, read-out: Inhibition
List of cytotoxicity at 70.5 h values.
readout: cytotoxicity at 70.5 h (%)

1. Cc1cc(C(=O)NCc2cccnc2N2CCCC(O)C2)[nH]n1 (stereo not drawn) = -16.1
2. Cc1cc2nc(SCC(=O)N3CCCC3)n(C)c(=O)c2[nH]1 = -3.73
3. CC(C)C1COC2(CCN(Cc3ccco3)CC2)C1 (stereo not drawn) = -7.19
4. COc1cccc(-n2c(SCC(=O)O)nnc2-c2cn[nH]c2)c1 = -3.32
5. CC(C)n1cnnc1CN(C)C(=O)Cn1ccc2ccccc2c1=O = -8.95
6. FC(F)(F)c1ccc(-n2ccnc2-c2cc3n(n2)CCNC3)cn1 = 12.7
7. O=C(NCCc1ccsc1)Nc1cccnc1N1CCCC1 = 3.02
8. CC(NC(=O)NCCN1CCCCCC1=O)c1ccc(Cl)s1 (stereo not drawn) = -10.6
9. O=C(c1ccc(Cl)cc1)N1CCc2nc(C(=O)N3CCCC3)sc2CC1 = 7.75
10. CCN(Cc1noc(C)n1)C(=O)C(c1ccc(C)cc1)N(C)C (stereo not drawn) = -0.785
11. Cc1cnn(CC2CCCN2C(=O)c2cnc(-c3ccco3)s2)c1 (stereo not drawn) = -9.06
12. O=C1CSC(c2ccncc2)c2c[nH]nc2N1 (stereo not drawn) = -8.06
13. CN(CCC(N)=O)Cc1cc(Br)cs1 = -19.7
14. Cc1nc(CN(CCS(C)(=O)=O)C(C)(C)C)no1 = 42.5
15. CCc1ccc(C2CC(=O)Nc3cc(OC)c(NS(C)(=O)=O)cc32)o1 (stereo not drawn) = -3.63
16. CS(=O)(=O)c1ccc(CN2CCCCC2c2ccc(F)cc2)cc1 (stereo not drawn) = 17.4
17. COc1ccc(NC(=O)c2cccc(OC)c2OC)cc1 = -3.77
18. CCn1nc(C)cc1C(=O)Nc1cc(F)ccc1OCC1CCCO1 (stereo not drawn) = -16.3
19. CC(C)NC(=O)N1CCc2nc(C(=O)NCc3ccccc3)sc2CC1 = -15.4
20. CC(=O)OC1CN(c2nc3c(C(F)(F)F)cccc3s2)C1 = -11.8
21. CC(=O)NCC1CCC2(CCN(c3ncc(C)cn3)CC2)O1 (stereo not drawn) = -3.04
22. Cc1c(F)cccc1S(=O)(=O)Nc1noc(C(C)C)n1 = -7.44
23. Cc1ccnc(NCC2(N(C)C)CCOCC2)n1 = -2.1
24. O=S(=O)(CCN1CCCC1Cn1cccn1)c1ccccc1 (stereo not drawn) = -13.8
25. CN(C)c1cc(C(=O)NCCc2n[nH]c(=O)[nH]2)ccn1 = -5.07
26. CCc1noc(C(C)N2CCN(c3ncnc4sccc34)CC2)n1 (stereo not drawn) = 1.35
27. Cc1ncsc1CN1CC[C@H]2OCC[C@@]2(C(=O)N2CCCC2)C1 = -1.98
28. Cc1cc(C(=O)N2CCn3cc(CN4CCN(C)CC4)nc3C2)no1 = -11.8
29. CCC[C@@H]1CN(C(=O)c2cc3ccccc3cc2O)C[C@H]1N(C)C = 28.4
30. CC(C)c1nc(CN(C)C2CCN(CCS(C)(=O)=O)C2)no1 (stereo not drawn) = -4.02
31. CCN(Cc1cccc(-c2ccncc2)c1)S(N)(=O)=O = -2.79
32. Cc1ccc(OC2(C(=O)NC(C)Cc3ccncc3)CCNCC2)cc1 (stereo not drawn) = -6.8
33. CNC(=O)N1CCCCC1CCNS(C)(=O)=O (stereo not drawn) = -13.3
34. NC(=O)C1CCN(c2ccc(C(=O)N3CCc4ccccc43)cn2)C1 (stereo not drawn) = -4.05
35. O=C1CO[C@H]2CN(S(=O)(=O)c3ccccc3)C[C@H]2N1Cc1ccccc1 = -9.3
36. CCCc1nc(N(C)CCc2noc(C(C)C)n2)c2cnn(C)c2n1 = 5.48
37. Clc1ccc(OCCCN2CCOC(Cn3cncn3)C2)cc1 (stereo not drawn) = 24.6
38. CC(c1nc(C2CC2)no1)N(C)Cc1ccc(C#N)cc1 (stereo not drawn) = -1.86
39. CN1CCC(CN2CCC3(CCCN(Cc4ccoc4)C3)C2=O)CC1 (stereo not drawn) = -10.7
40. Cc1cc(NCc2cccc(C#N)c2)ccc1C(N)=O = 2.79
41. CCN(C)C(=O)[C@H]1C[C@@](CC(C)C)(C(=O)OC)N(C)[C@H]1c1cccnc1 = -3.05
42. CC(C)C(C(=O)N1CCN(c2ccncc2)CC1)n1cncn1 (stereo not drawn) = -7.42
43. COc1ccc(OC2CCN(C(=O)C3CCCN(C)C3)CC2)cc1 (stereo not drawn) = -0.196
44. COC(=O)CC1CN(Cc2ccn(-c3ccc(F)cc3)n2)CCO1 (stereo not drawn) = -8.65
45. Cc1nc(C2CCCN2CC(=O)NCCOc2ccc(F)cc2)no1 (stereo not drawn) = 47.6
46. Cc1ccc(OC2(C(=O)O)CCN(C/C=C/c3ccco3)CC2)cc1 = -7.6
47. CN1CCN(C(=O)C2CCCN(c3cccnn3)C2)CC1 (stereo not drawn) = 26.4
48. COc1ccnc(CN2CCC=C(C(C)NC(C)=O)C2)c1OC (stereo not drawn) = -3.19

###

assay-remarks: Human HepG2 cell viability assay in 384 well format
Type: toxicity, cell-based
Design: dose 125 nL, time 70.5 hour; concentration not given beside the values
condition: HepG2 cells, read-out: Inhibition
readout: cytotoxicity at 70.5 h (%)

1. CC(C)(C)OC(=O)N1CCC[C@H](NCC2=CCCOC2)C1 = -9.87
2. CCC1CN(CC(=O)NC(C)C)CCO1 (centres undefined) = -10.4
3. O=C([C@@H]1C[C@@H]2CCN(c3cccc(F)c3)C[C@H]2O1)N1CCCC1 = 27.2
4. Cc1cccc(CN2C(=O)CCC23CCN(c2ccccn2)CC3)n1 = -9.61
5. Clc1ccccc1C1(c2ccnc(C3CC3)n2)CCNCC1 = 48.5
6. Cc1ccc2c(c1)c(CNC(=O)C1CC(=O)N(C3CC3)C1)nn2C (centres undefined) = -4.12
7. COCCN1C[C@H]2[C@@H](C1)N(C(=O)COc1ccccc1)CC[C@H]2OC = -11.3
8. Cc1ccc(-c2noc(CNCC3CN(C)CCO3)n2)cc1F (centres undefined) = -5.24
9. CCc1cc(NCCN2CCNC2=O)n2nc(C)c(C)c2n1 = -11.4
10. CCCNC(=O)CN1CCN(c2nc(CC)ns2)CC1 = -9.67
11. CN(Cc1cccnc1)C1CC2(CCN(Cc3ccccn3)CC2)C1 = -11.6
12. CNC(=O)COc1ccccc1CNC1CCc2ncnn2C1 (centres undefined) = 29.2
13. Cc1occc1C(=O)N1CCCC(C2=Nc3ccccc3S(=O)(=O)N2)C1 (centres undefined) = -5.45
14. Cc1cnc(CC2COCCN(Cc3nccn3C)C2)cn1 (centres undefined) = -1.89
15. CCn1ccnc1C1CCN(Cc2cccc(C)n2)CC1 = 2.62
16. COc1ccc(N2Cc3nc(N)ncc3C2=O)cc1Cl = -3.37
17. Cc1ccoc1-c1nnc(CN2CCn3c(C)nnc3C2)o1 = -0.634
18. CC[C@H]1CN2CC[C@H]1C[C@@H]2CNC(=O)Nc1cccc(C#N)c1 = 13.7
19. CCN(CCO)Cc1cn(-c2cccc(F)c2)nc1-c1ccc(C)o1 = -14.6
20. c1ccc(-n2ncc(CNCC3CCCN3c3cccnn3)n2)cc1 (centres undefined) = 5.2
21. CN(CCn1cccn1)S(=O)(=O)N1CCCC1c1ccco1 (centres undefined) = -17
22. CSCC(C)(O)CNc1ncccc1C(F)(F)F (centres undefined) = 1.25
23. NCC1(c2cccc(C(F)(F)F)c2)CCOCC1 = -3.44
24. Cc1ccccc1OC1CCN(CC(=O)Nc2c(C)nn(C)c2C)CC1 = 1.35

###

assay-remarks: Human HepG2 cell viability assay in 384 well format
Format: toxicity, cell-based
Set-up: dose 125 nL, time 70.5 hour; concentration not given beside the values
condition: HepG2 cells, read-out: Inhibition
readout: cytotoxicity at 70.5 h (%)

1) Cc1cnn(CC2CCCN2Cc2nc3ccccc3nc2C)c1 (stereo not given) = -7.74
2) CC(C)c1nc(C2CCCN(C(=O)CN(C)S(C)(=O)=O)C2)no1 (stereo not given) = 5.74
3) CC(=O)N1CCN(C(=O)C[C@@H]2C[C@@H](C(C)C)[C@H](CC#N)C=C2C)CC1 = 0.119
4) Cc1ccc(CN2CC[C@H]3OCC[C@@H](C(=O)NCC4CC4)[C@@H]3C2)s1 = -6.5
5) O=S(=O)(c1cccnc1)N1CCN(CC(O)c2ccccc2)CC1 (stereo not given) = -3.21
